Assay: Plasma protein binding by RED in artificial plasma (PBS with recombinant human AAG and albumin)
Type: in vitro ADME
Settings: human, AAG 4 mg/mL, albumin 40 mg/mL, lurbinectedin 500 ng/mL; read-out: mean percent unbound
RECORDED ENDPOINT: fraction unbound at 8 h, 500 ng/mL
Give a plain numeric answer without units written out.

Form: compound = COc1ccc2[nH]c3c(c2c1)CCN[C@]31CS[C@@H]2c3c(OC(C)=O)c(C)c4c(c3[C@H](COC1=O)N1[C@@H]2[C@H]2c3c(cc(C)c(OC)c3O)C[C@@H]([C@@H]1O)N2C)OCO4 [Lurbinectedin] ; fraction unbound at 8 h, 500 ng/mL = 0.00101
